Target: M1-site (pirenzepine sensitive site) of muscarinic receptors (Rattus norvegicus)
Construct: Fresh cortex (0.1-1 g) from male Wistar rats (150-200 g) is homogenized; from tissue; host or cells: cerebral cortex of male Wistar rats
Sequence (P08482 1-460): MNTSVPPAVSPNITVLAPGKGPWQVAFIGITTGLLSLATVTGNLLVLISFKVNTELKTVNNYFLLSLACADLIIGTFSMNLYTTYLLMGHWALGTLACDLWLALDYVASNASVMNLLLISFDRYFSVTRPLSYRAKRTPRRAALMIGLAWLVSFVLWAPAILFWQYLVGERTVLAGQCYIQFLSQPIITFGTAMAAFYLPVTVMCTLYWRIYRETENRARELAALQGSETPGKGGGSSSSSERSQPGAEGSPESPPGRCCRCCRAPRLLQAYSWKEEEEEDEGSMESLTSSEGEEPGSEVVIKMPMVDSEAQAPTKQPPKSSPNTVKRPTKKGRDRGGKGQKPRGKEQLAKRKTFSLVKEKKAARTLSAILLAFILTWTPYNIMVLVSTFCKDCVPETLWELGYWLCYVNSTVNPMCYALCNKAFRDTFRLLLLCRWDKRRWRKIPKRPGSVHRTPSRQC
Test: inhibition of ^3 H-PRZ (pirenzepine, [N-methyl-^3 H]) binding to rat cerebral cortex membranes
Parameters: species or system male Wistar rats
Conditions: rat cortex, 1.0 nM ^3 H-Pirenzepine, 60 min at 20° C., pH 7.4; read-out: ^3 H-Pz IC50
Procedure: Furthermore the pharmacological properties of the compounds of the invention can also be illustrated by determining their capability to inhibit ^3 H-PRZ (pirenzepine, [N-methyl-^3 H]) binding to rat cerebral cortex membranes. […] The final pellet is homogenized in 20 mM Hepes pH: 7.4 (100 ml per g of original tissue) and used for binding assay. […] Non-specificbinding is determined in triplicate using atropine (1 μg/ml, final conc.) as the test substance. […]
pIC50: −log10 of the molar value.

{"columns": ["Compound", "pIC50"],
 "data": [
  ["C1Cc2sc3nsnc3c2CN1.O=C(O)C(=O)O [Compound 2, oxalate]", 6.55]
]}

* * *

Molecular target: M1-site (pirenzepine sensitive site) of muscarinic receptors (Rattus norvegicus, UniProt P08482)
Construct: Fresh cortex (0.1-1 g) from male Wistar rats (150-200 g) is homogenized; from tissue; host or cells: cerebral cortex of male Wistar rats
Assay: inhibition of ^3 H-PRZ (pirenzepine, [N-methyl-^3 H]) binding to rat cerebral cortex membranes
Parameters: species or system male Wistar rats
Counter-ions that a name gives are not always drawn.
Here, each record is paired with measured IC50 data.
Reported endpoint: IC50 (nM)

{"columns": ["Molecule", "Qualifying sign", "Recorded measurement"],
 "data": [
  ["C1CC2CN(C1)Cc1c2sc2nsnc12.O=C(O)C(=O)O (stereo not shown) [Compound 3, oxalate]", "=", 26],
  ["CN1C2CCC1c1c(sc3nsnc13)C2.O=C(O)C(=O)O (stereo not shown) [Compound 1, oxalate]", ">", 1000],
  ["CN1CCC2=C(C1)c1nsnc1SC2 [Compound 5, oxalate]", "=", 80],
  ["O=C(O)C(=O)O.c1cc2nsnc2c2c1CCNC2 [Compound 4, oxalate]", "=", 255]
]}

* * *

Biological target: muscarinic acetylcholine receptors
Experiment: inhibition of specific binding of ^3 H-Oxotremorine-M (^3 H-Oxo) to rat cortex homogenate
Design: species or system male Wistar rats
Settings: 1.0 nM radioligand, 30 min at 25° C., pH 7.4
Counter-ions that a name gives are not always drawn.

{"columns": ["Compound", "^3 H-Oxo-M IC50"],
 "data": [
  ["O=C(O)C(=O)O.c1cc2nsnc2c2c1CCNC2 [Compound 4]", "0.014 µg/mL"],
  ["C1Cc2sc3nsnc3c2CN1.O=C(O)C(=O)O [Compound 2]", "0.0064 µg/mL"],
  ["CN1CCC2=C(C1)c1nsnc1SC2 [Compound 5, oxalate]", "0.014 µg/mL"],
  ["C1CC2CN(C1)Cc1c2sc2nsnc12.O=C(O)C(=O)O (centres unmarked) [Compound 3]", "0.0022 µg/mL"],
  ["CN1C2CCC1c1c(sc3nsnc13)C2.O=C(O)C(=O)O (centres unmarked) [Compound 1]", "0.27 µg/mL"]
]}
